Across several publications, the following IC50 results were reported for Cytochrome P450 2C19 (Homo sapiens).

Before answering, review these 3 worked examples.
Consider C[C@]1(c2cc(NC(=O)c3ccc(F)cn3)ccc2F)N=C(N)O[C@H](CF)[C@@H]1OCC(F)(F)F . Its measured IC50 is ≥ 20 µM

For this compound ( COc1ccc(C(=O)Nc2ccc(F)c([C@@]3(C)N=C(N)O[C@H](C(F)(F)C4CC4)[C@@H]3F)c2)nc1 ), measured IC50 is ≥ 20 µM

Memo: COc1cc2ccc(C(C(C)C)n3ccnn3)cc2cc1OC (stereo not shown) , reported IC50: 8.4 µM

Shifting focus to the compound that follows.
COCC(c1cncn1[C@H](C)c1ccc(F)cc1)N1CCN(S(=O)(=O)c2cnc(N3CCN(C)CC3)s2)CC1 (single isomer, unassigned) yielded IC50 of > 10 µM

----------
// note: IC50 values for Cytochrome P450 2C19 (Homo sapiens, UniProt P33261) were reported in different studies

Record COc1ccc(Nc2ccc(C(=O)c3c[nH]c4ncc(C)cc34)c(F)n2)cn1 . Reported IC50: > 10 µM

So, COc1ccc2c(c1OCc1ccccc1)C[C@@H](C(=O)O)N(C(=O)[C@@H](OC1CCCC1)c1ccccc1)C2 ? Its IC50 was > 50 µM

compound OC(Cn1cnnn1)(c1ccc(F)cc1F)C(F)(F)c1ccc(OCc2cccc(F)c2)cn1 (stereo not shown) , IC50 observed: 11 µM

----------
pIC50: −log10 of the molar value.
Listing of pIC50 toward Cytochrome P450 2C19 (Homo sapiens), each taken from a published source.

Example cases with answers are listed next.
Form field pIC50, entry C[C@@H](c1ccc(-c2ccc(C(=O)N(C)C)nc2)cc1)N1CC[C@](CC(C)(C)O)(c2ccccc2)OC1=O : 4.40

Measured pIC50 of C[C@@H](c1ccc(-c2cc([S+](C)[O-])ccn2)cc1)N1CC[C@](CC(C)(C)O)(c2ccccc2)OC1=O (stereo partly shown) : < 4.30

Memo: COc1cnc(C(=O)Nc2ccc(F)c([C@@]3(C)N=C(N)O[C@H]([C@H](C)F)[C@@H]3F)c2)cn1 , reported pIC50: ≤ 4.70

Noted for COc1cc2c(NC3CCN(C(C)C)CC3)nc(-n3cccn3)nc2cc1OCCCN1CCCC1 : its pIC50 reads < 4.00

New cases:
Per the record, C[C@]1(c2cc(NC(=O)c3cnc(OCF)cn3)ccc2F)N=C(N)OCC12CC(F)(F)C2 has pIC50 of ≤ 4.70

Lab note: measured pIC50 of CC(=O)C1=C(C)N(c2cccc(C(F)(F)F)c2)C(=O)N(C)[C@@H]1c1ccc(C#N)cc1-c1ccc(=O)n(C)c1 was < 4.30

The reported pIC50 of the compound CCc1ccc(Nc2ccc(C(=O)c3c[nH]c4ncnc(NC5CCC5)c34)c(F)n2)cn1 was < 5.00

----------
Multiple publications report IC50 for Cytochrome P450 2C19 (Homo sapiens, UniProt P33261); what follows is a combined list.

Tested on Cytochrome P450 2C19 (Homo sapiens, UniProt P33261): CO[C@H]1CN(C2CCN(C(=O)c3cncn3[C@@H](C)c3ccccc3-c3ccc(F)cc3)CC2)C[C@@H]1O . Observed IC50: > 10 µM

Cytochrome P450 2C19 (Homo sapiens, UniProt P33261) data for COc1ccc(Nc2ccc(Cc3c[nH]c4ncnc(OC)c34)c(F)n2)cn1 ; its IC50: < 5 µM

IC50 on Cytochrome P450 2C19 (Homo sapiens, UniProt P33261) for Cc1cc(Nc2ncc(Cl)c(Nc3cn(C)nc3S(=O)(=O)C(C)C)n2)c(OC(C)C)cc1C1CC(C)N(C)C(C)C1 (stereo not shown) is > 10 µM

The compound O=C(O)[C@@H]1Cc2c(ccc(Cl)c2OCc2ccccc2)CN1C(=O)[C@@H](OC1CCCC1)c1ccccc1 , when measured on Cytochrome P450 2C19 (Homo sapiens, UniProt P33261), yielded IC50 of > 50 µM

Reported IC50 (Cytochrome P450 2C19 (Homo sapiens, UniProt P33261)) for entry CS(=O)(=O)CC(=O)Nc1c(-c2ccc(C3CC3)cn2)nn2c1C(=O)N[C@@]1(CCc3cc(F)cc(F)c31)C2 is > 20 µM

New cases:
Simply: COc1cccc(-c2ccc3nc(NC(=O)NCc4cc(=O)[nH]o4)cn3n2)c1 , Cytochrome P450 2C19 (Homo sapiens, UniProt P33261), IC50 = > 20 µM

Param item: Cc1ccc(-c2nn3c(c2NC(=O)CS(C)(=O)=O)C(=O)N[C@@]2(CCc4cc(OCC(F)(F)F)ccc42)C3)nc1 ; param system: Cytochrome P450 2C19 (Homo sapiens, UniProt P33261); output IC50: > 20 µM

----------
Consider the following pIC50 data for Cytochrome P450 2C19 (Homo sapiens), collected from several reports.
pIC50: −log10 of the molar value.

# compound COc1cc(N2CCc3nc(NC(=O)NCCC(=O)N4CCC[C@H]4C(=O)O)sc3C2)nc(OC)n1 ; its pIC50 = < 4.70

// recorded pIC50 for C[C@@H](c1ccc(-c2cccc([S+](C)[O-])n2)cc1)N1CC[C@](CC(C)(C)O)(c2ccccc2)OC1=O (stereo partly shown) : < 4.30

response.value for C[C@H](c1ccc(F)cc1)n1cncc1CN1CCN(S(=O)(=O)c2cnc(N3CCN4C[C@H](O)C[C@@H]4C3)s2)CC1 (field: pIC50) = < 5.00

Lab book: pIC50 of CCNc1ncnc2[nH]cc(C(=O)c3ccc(Nc4ccc(CC)nc4)nc3F)c12 noted as < 5.00

pIC50 measured on C[C@H](c1ccc(F)cc1)n1cncc1C1CN(C)CC2CN(S(=O)(=O)c3cnc(Nc4ccccn4)s3)CCN21 (stereo partly shown) = 5.31

pIC50 for CC[C@@H](C#N)NC(=O)c1ccc(-c2nc(Nc3cnn(C4CCNCC4)c3)ncc2Cl)cc1 is < 4.30

Consider the record given below.
The recorded pIC50 for entry Cc1nc(C(=O)Nc2ccc(F)c([C@@]3(C)N=C(N)O[C@H](C(F)(F)F)[C@@H]3C)c2)co1 equals ≤ 4.70

----------
pIC50 values for UniProtKB P33261 compiled from several publications are listed below.
pIC50: −log10 of the molar value.

# example entries with known answers
For CO[C@H]1[C@@H](C)SC(N)=N[C@]1(C)c1cc(NC(=O)c2ccc(F)cn2)ccc1F the compound record lists pIC50 as ≤ 4.70

Measured pIC50, COC(C)C(=O)Nc1cccc(NC(C(N)=O)c2ccccc2)c1 (stereo not shown) : < 4.30

GET /value?item= CCCNc1ncnc2[nH]cc(C(=O)c3ccc(Nc4ccc(OC)nc4)nc3F)c12 &field=pIC50 returns < 5.00

Continuing:
Kindly note the recorded pIC50 for C[C@@H]1CN(S(=O)(=O)c2ccc(Cl)cc2)C[C@@H]1n1nc(CC(=O)O)c2ccc(F)cc21 , which is < 4.70

----------
Literature-derived IC50 for Cytochrome P450 2C19 (Homo sapiens, UniProt P33261) follows.

Worked cases, answers included:
compound Cc1cc(-c2ccc([C@H](C)N3CC[C@](CC(C)(C)O)(c4ccc(F)cc4)OC3=O)cc2)ccn1 , IC50 observed: 8.5 µM

For record CNC(=O)c1cc(COc2nnc(Nc3ccc4c(c3)CCC4)c3ccoc23)ccn1 the listed IC50 is > 20 µM

Value of IC50 reported for the compound C[C@@H](c1ccccc1-c1ccc(F)cc1)n1cncc1C(=O)N1CCC(N2C[C@H](O)[C@@H](F)C2)CC1 is > 10 µM

Record CC(C)C(c1ccc2cc(OCC(F)(F)F)ccc2c1)n1ncnn1 (stereo not shown) . Reported IC50: 45 µM

Others:
Query C[C@@H](c1ccc(-c2ccnc(S(C)(=O)=O)c2)cc1)N1CC[C@](CC(C)(C)O)(c2ccccc2)OC1=O yields IC50 of > 50 µM

Sample CNc1ncnc2[nH]cc(C(=O)c3ccc(NC4CCCCC4)nc3Cl)c12 ; IC50 observed: < 5 µM

IC50 for Cc1nc(CO)sc1-c1csc(NC(=O)C2CCC(F)(F)C2)n1 (stereo not shown) is > 20 µM

IC50 measured on CNC(=O)Nc1cc2n(n1)CCN2c1ccc(C(=O)O)s1 = > 20 µM

According to the records, this compound Cc1cnc(Nc2cnn(C3CCN(C(=O)CO)CC3)c2)nc1-c1ccc(C(=O)N[C@@H](C)C#N)cc1 displays IC50 of > 50 µM

get_value(item= C[C@@H](c1ccc(-c2ccc(C(=O)NC3CC3)nn2)cc1)N1CC[C@](CC(C)(C)C#N)(c2ccccc2)OC1=O , readout=IC50) returns 3.7 µM

Summary for this compound, COc1cnc(C(=O)Nc2cccc([C@@]3(C)N=C(N)S[C@H](C)[C@@H]3F)c2)cn1 : IC50 is ≥ 20 µM

IC50 reported for this compound COc1cc2c(NC3CCN(C(C)C)CC3)nc(C#N)nc2cc1OCCCN1CCCC1 : > 100 µM

IC50 reading for C[C@@H](c1ccccc1-c1ccc(F)cc1)n1cncc1C(=O)N1CC[C@@H](N2CCNC(=O)C2)[C@@H](F)C1 : > 10 µM

The reported IC50 of the compound COc1cnc(C(=O)Nc2ccc(F)c([C@@]3(C)N=C(N)O[C@H]4[C@@H]3OCC4(F)F)c2)cn1 was ≥ 20 µM

Query COc1ccc(Nc2ccc(C(=O)c3c[nH]c4ncnc(N5CCOCC5)c34)c(F)n2)cn1 yields IC50 of > 10 µM

Measured IC50 of C[C@H]1SC(N)=N[C@](C)(c2cc(NC(=O)c3ncc(OCC(F)(F)F)cn3)ccc2F)[C@H]1F : ≥ 20 µM
